# SUBJECT_OF_TEST: human LAG3 expressed on cells (human) (UniProt P18627)
# Sequence (P18627 23-525): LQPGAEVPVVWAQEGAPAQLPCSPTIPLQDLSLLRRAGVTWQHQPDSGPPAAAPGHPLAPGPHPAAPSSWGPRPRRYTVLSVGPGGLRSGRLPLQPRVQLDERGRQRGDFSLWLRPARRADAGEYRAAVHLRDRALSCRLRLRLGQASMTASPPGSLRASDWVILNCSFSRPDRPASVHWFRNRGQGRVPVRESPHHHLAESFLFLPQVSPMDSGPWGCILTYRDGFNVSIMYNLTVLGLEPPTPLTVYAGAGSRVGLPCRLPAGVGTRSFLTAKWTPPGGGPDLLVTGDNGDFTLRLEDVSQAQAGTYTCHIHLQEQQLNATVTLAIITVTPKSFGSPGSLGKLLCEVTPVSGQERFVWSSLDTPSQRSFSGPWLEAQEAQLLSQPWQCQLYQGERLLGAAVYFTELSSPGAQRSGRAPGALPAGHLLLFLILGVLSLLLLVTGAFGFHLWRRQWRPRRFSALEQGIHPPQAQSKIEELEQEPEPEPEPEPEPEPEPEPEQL
# PROTOCOL_TEXT: cell-based or functional assay
This section presents binders with their documented Efficacy (Normalized to BMS) values.
Numeric only. Scale: %

| BINDER | OBSERVED |
| --- | --- |
| sdAb fusion 25-2015-3 (Fc fusion, not shown: a dimerising Fc or GST) QLQLVESGGGLVQAGGSLRLSCAASGSIESFSFMGWYRQAPGKQRELVAGFTGAASLSFSTYTDAVKGRFTISRDNAKNTVYLQMNSLKPEDTAVYFCNVDPWSQSWPGRYWGQGTQVTVSSGGGGSGGGGSGGGGSQLQLVESGGGLAQTGGSLRLSCAAAGFTFDDTATGWFRQAPGKNREGVACISSSDGRIHYIDSAKGRFTISKDNAKKTVYLQMDSLKPEDTAVYYCAAARKGSTDCQGAIWGSWGQGTQVIVSSEPKSCDKTHTCPPCPAPELLG | 113 |

Would you kindly look at the next entry?
[ask] Can you share its Efficacy (Normalized to BMS)? I mean this binder: sdAb fusion 25-27-2 (Fc fusion, not shown: a dimerising Fc or GST) QLQLVESGGGLVQAGGSLRLSCAASGSIESFSFMGWYRQAPGKQRELVAGFTGAASLSFSTYTDAVKGRFTISRDNAKNTVYLQMNSLKPEDTAVYFCNVDPWSQSWPGRYWGQGTQVTVSSGGGGSGGGGSQVQLVESGGGLVQPGGSLRLSCAASGFTLDYYAIGWFRQAPGKEREGVSCIRSSDGSTYYADSVKGRFTISSDNTKNTVYLQMNSLKPEDTAVYYCATDRYSDCRGPYENWGQGTQVTVSSEPKSCDKTHTCPPCPAPELLG
[reply] 106
